Values from patent US11957701B2

System: MV4-11
assay details: Combined use under low protein content, MTT assay after 48 hours
Format: cell-based, human
condition set: Homo sapiens, MV4-11, low protein content, read-out: IC50 value of DFP-10917 alone
Counter-ions that a name gives are not always drawn.
value type: pIC50
The meaning of pIC50 here: minus log10 of the concentration in molar units.

-- ask Field request: pIC50 | item: N#C[C@H]1[C@H](O)[C@@H](CO)O[C@H]1n1ccc(N)nc1=O [DFP-10917, monohydrochloride]
-- reply 5.82
